Reported IC50 is given for each of the following molecules.
molecular target: UniProtKB Q9P2K8
Sequence (Q9P2K8 whole entry): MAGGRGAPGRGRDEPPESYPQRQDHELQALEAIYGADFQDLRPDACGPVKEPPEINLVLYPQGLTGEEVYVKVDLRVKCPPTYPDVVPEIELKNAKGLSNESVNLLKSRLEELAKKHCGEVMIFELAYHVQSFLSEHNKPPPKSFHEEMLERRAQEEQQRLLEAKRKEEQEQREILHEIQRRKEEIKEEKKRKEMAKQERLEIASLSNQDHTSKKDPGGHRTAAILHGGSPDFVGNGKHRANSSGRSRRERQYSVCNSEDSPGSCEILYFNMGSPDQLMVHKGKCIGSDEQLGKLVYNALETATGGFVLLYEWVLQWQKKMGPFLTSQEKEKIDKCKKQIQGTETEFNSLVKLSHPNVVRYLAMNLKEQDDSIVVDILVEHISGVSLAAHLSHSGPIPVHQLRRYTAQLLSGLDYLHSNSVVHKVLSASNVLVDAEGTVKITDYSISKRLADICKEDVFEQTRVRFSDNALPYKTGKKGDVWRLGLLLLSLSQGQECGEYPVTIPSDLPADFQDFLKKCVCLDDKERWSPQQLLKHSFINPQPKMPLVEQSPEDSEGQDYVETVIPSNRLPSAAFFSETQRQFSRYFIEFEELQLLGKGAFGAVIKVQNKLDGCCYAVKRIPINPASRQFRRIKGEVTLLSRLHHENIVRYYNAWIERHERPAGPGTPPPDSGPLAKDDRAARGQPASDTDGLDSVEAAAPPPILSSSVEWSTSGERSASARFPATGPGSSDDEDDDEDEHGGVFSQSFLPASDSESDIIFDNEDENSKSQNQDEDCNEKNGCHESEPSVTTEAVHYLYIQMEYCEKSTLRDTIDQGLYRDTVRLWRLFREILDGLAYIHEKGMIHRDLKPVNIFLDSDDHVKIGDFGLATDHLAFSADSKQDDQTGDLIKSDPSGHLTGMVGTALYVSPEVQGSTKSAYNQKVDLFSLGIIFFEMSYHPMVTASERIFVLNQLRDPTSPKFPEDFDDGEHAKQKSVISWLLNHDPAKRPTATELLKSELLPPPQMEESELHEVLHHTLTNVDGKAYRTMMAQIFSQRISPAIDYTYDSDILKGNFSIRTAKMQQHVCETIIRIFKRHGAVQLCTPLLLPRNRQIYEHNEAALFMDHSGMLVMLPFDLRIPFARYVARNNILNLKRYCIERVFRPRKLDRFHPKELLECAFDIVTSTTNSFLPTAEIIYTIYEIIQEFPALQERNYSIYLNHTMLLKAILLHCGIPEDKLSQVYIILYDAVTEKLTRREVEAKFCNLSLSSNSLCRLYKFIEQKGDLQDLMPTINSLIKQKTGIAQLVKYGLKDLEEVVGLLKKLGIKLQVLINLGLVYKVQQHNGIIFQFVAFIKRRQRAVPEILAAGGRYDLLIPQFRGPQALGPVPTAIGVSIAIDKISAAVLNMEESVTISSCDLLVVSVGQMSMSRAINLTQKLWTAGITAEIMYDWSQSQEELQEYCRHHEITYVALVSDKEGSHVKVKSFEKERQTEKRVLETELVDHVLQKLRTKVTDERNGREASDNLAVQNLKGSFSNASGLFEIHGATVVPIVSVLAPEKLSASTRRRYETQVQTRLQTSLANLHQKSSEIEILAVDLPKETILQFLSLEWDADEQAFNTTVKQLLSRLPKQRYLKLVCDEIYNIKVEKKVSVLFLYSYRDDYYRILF
READOUT KIND: IC50

- CNc1cc2nc(N)c(-c3cccc(NS(=O)(=O)c4cc(Cl)cc(CO)c4Cl)c3F)cc2cn1 [US11912668, Example 171]: < 100 nM
- CNc1ncc2cc(-c3cc(F)cc(NS(=O)(=O)c4cc(Cl)cnc4OC)c3)c(C)nc2n1 [US11912668, Example 65]: < 100 nM
- Cc1nc2cc(N)ncc2cc1-c1cccc(NS(=O)(=O)c2cc(Cl)cc(CO)c2Cl)c1F [US11912668, Example 174]: < 100 nM
